Listed below: hERG current change (%, negative = inhibition) at 1uM values for each entry.
ASSAY TARGET: human ether-à-go-go-related gene (hERG) potassium channel (human, UniProt Q12809)
Sequence (Q12809 whole entry, looked up): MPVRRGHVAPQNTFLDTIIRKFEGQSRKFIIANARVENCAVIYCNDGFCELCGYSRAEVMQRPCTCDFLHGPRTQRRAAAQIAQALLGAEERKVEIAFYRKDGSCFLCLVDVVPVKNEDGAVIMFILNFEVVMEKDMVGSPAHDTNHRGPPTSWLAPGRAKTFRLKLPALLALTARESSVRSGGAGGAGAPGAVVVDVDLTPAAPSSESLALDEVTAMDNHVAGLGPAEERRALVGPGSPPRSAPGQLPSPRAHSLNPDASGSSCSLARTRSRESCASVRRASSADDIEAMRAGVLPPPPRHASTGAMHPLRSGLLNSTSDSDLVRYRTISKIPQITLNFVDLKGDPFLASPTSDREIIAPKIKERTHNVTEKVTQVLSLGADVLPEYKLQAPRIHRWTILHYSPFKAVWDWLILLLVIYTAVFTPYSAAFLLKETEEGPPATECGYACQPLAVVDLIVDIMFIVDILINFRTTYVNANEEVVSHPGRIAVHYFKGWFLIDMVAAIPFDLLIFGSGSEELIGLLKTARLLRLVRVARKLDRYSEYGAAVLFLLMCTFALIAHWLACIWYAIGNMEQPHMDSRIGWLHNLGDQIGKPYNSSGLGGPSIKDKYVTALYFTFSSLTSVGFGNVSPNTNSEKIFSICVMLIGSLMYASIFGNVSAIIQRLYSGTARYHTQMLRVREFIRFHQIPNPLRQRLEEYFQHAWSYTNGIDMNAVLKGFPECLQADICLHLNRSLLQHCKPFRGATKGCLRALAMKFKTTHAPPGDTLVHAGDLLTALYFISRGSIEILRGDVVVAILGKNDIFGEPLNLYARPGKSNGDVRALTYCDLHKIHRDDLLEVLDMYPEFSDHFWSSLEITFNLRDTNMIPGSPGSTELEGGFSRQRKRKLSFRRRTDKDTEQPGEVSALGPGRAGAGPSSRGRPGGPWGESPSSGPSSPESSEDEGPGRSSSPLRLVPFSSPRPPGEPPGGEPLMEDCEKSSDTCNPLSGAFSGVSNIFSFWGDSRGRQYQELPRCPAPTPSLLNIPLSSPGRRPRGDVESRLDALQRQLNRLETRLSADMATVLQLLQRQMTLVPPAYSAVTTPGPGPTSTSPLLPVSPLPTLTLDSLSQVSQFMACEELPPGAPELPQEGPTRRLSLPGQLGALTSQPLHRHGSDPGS
ASSAY SUMMARY: primary screen, population patch clamp on CHO cells stably expressing hERG; higher = less effect of the substance
The whole screen tested about 310,000 compounds, of which about 2,200 (0.71%) showed an effect of 50% or more. Effects have a minus sign here. Only a selection was taken, and strong results are over-represented in it overall.
A number alone suffices; assume %.

Field: example entries. Status: answers known.
INSERT INTO results (compound, measured_value) VALUES
  ('CCN(CC)CCCNC(=O)CNC(=O)c1nn(-c2ccc(OC)cc2)c(=O)c2ccccc12', 17.5),
  ('CCOC(=O)C1CCN(C(=O)C2CCN(C(=O)c3ccc([N+](=O)[O-])cc3)CC2)CC1', -28.2),
  ('CCOC(=O)C1(CCCc2ccccc2)CCN(C(=O)COC)CC1', 10.5),
  ('Cc1sc2ncnc(N3CCC(C(=O)N(C)CC(=O)Nc4ccccc4Cl)CC3)c2c1C', -30),
  ('CSc1ccccc1-n1nnnc1SCC(=O)Nc1ccccc1C', -9.11),
  ('Cc1onc(-c2ccccc2)c1C(=O)OCc1nnc(-c2ccc([N+](=O)[O-])cc2)o1', -51.2),
  ('COc1cc2ncc(C(=O)c3ccccc3)c(N3CCN(Cc4ccccc4)CC3)c2cc1OC', 8.52),
  ('CCOc1cc(/C=N/NC(=O)c2cccnc2)ccc1O', 7.47);

Proceeding to the next compound to report its hERG current change (%, negative = inhibition) at 1uM.
If you can, please state the reported hERG current change (%, negative = inhibition) at 1uM value of N#C/C(=C\c1ccc(OCCN2CCOCC2)cc1)C(=O)Nc1ccccc1F . 12.6

---

ASSAY TARGET: human ether-à-go-go-related gene (hERG) potassium channel (human, UniProt Q12809)
ASSAY SUMMARY: primary screen, population patch clamp on CHO cells stably expressing hERG; higher = less effect of the substance
Screen size: about 310,000 compounds; about 2,200 (0.71%) showed an effect of 50% or more. Effects have a minus sign here. The sample as a whole holds a higher share of strong results than the screen did.
Below: a set of entries, each annotated with reported hERG current change (%, negative = inhibition) at 1uM.
Return type: number; implicit unit %.

Here's what some known entries look like.
INSERT INTO measurements (compound, unit_info, measured_value) VALUES
  ('Cc1ccccc1CSc1ccc2nnc(-c3ccccn3)n2n1', '%', -50.9),
  ('COc1ccc(CN2C3CCCC2CC(NC(=O)Nc2cccc(C)c2)C3)cc1 (centres unmarked)', '%', -71.5),
  ('C=CCNC(=O)CSc1ccc(Cl)cc1', '%', 13.7),
  ('COc1cccc(C(=O)CN2CCN(S(=O)(=O)c3cccc([N+](=O)[O-])c3)CC2)c1', '%', 6.87);

Under human ether-à-go-go-related gene (hERG) potassium channel (human, UniProt Q12809): hERG current change (%, negative = inhibition) at 1uM value of O=C(N/N=C/c1cn(-c2ccccc2)nc1-c1cccnc1)c1cccnc1 ? -26.3

And what about the compound CC1CCC/C(=C\Nc2ccc(C(=O)O)c(O)c2)C1=O (centres unmarked) ? 9.19

Next compound: Cc1ccc(CSc2ccc3nnc(-c4ccccn4)n3n2)cc1 -36.5

Try this compound next: O=C(CSc1ccc2nnc(-c3ccccn3)n2n1)N1CCN(c2ccccc2)CC1 -89.9

Please give the result for CCOc1ccccc1CN1CCN(Cc2[nH]c3ccccc3c2C)CC1CCO (centres unmarked) too. -13
